- Target Entity: T1, human PCSK9 (PCSK9 antigen, SEQ ID NO. 53) (human, UniProt A8T644 31-152; Q8NBP7 153-692, Biotin-labelled on amines in the MSD-SET and sorting experiments; positions not given.)
- T1 construct: Biotin-labelled in MSD-SET; also called PCSK9-WT; PCSK9 protein
- Procedure Text: flow cytometry, PCSK9 left on CHO-LDLR cells (anti-His-FITC) after premix with 0.1 nM antibody
This section presents binders with their documented Fluorescence Signal Value values.
Simply state the number, no unit and no words.

Binder	Numeric Value
ADI-10089 (antibody, human IgG2, kappa, V domains shown, IgG) VH: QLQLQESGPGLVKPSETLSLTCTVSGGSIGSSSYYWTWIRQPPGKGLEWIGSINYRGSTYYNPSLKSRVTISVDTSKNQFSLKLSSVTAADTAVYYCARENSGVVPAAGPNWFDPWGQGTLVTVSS VL: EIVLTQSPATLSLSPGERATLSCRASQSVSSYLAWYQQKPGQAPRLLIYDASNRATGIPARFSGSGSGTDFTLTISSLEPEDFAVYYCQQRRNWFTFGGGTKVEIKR	6890

Would you kindly look at the next entry?
QUERY: If you can, please state the reported Fluorescence Signal Value value of Evolocumab (antibody, V domains shown) VH: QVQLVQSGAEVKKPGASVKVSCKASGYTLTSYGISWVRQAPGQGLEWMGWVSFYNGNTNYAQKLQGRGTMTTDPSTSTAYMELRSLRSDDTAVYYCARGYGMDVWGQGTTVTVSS VL: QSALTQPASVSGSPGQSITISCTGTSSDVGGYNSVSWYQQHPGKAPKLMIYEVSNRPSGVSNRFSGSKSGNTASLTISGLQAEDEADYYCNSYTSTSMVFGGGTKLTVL .
RESULT: 6990
